Tested on: UACC-62 melanoma
Assay: NCI-60 one-dose screen, 48 h (100 = growth as untreated, 0 = no growth, -100 = all killed)
Settings: 10 µM unless noted
The panel holds about 83,000 compounds, 20% with a hit somewhere; the sample as a whole holds those more often. The source made the active and inactive calls. Rule for the calls: active = growth percent below 10; inactive = the rest.
quantity_measured: growth

Example entries begin here.
molecule: CSCCC(NC(=O)C(Cl)Cl)C(=O)O (centres undefined)
growth: 95.8% (inactive)
//
molecule: O=C(O)Cc1ccccn1
growth: 106% (inactive)
//
molecule: COC(=O)c1ccccc1C(=O)c1c(C)cc(C)cc1C
growth: 92.5% (inactive)
//
molecule: CCCCCC#CC(=O)O
growth: 104% (inactive)
//
molecule: C=CCC(OC(C)=O)c1ccc(C(C)C)cc1 (centres undefined)
growth: 105% (inactive)
//
molecule: S=C(Sc1ccc(Cl)cc1)Sc1ccc(Cl)cc1
growth: -47% (active)
//
molecule: Cc1cccc(-[n+]2noc(N)n2)c1
growth: 40.7% (inactive)
//
molecule: CCN(CC)CCCC(C)NC(=S)N/N=C(\C)c1ccccn1 (centres undefined)
growth: 22.3% (inactive)
//
molecule: Clc1ccc(C(SCc2ccccc2)SCc2ccccc2)cc1
growth: 82.1% (inactive)
//
molecule: COc1ccc(C)cc1NC(=O)SC(C)C
growth: 87.5% [100 µM] (inactive)

State recorded growth for all listed molecules.
1. CN1CCN(C(=S)S)CC1
2. Cc1ccc(O)c(N)c1

["101% (inactive)", "81.5% (inactive)"]

State recorded growth for all listed molecules.
1. CCCC(=O)CC(=O)c1ccccc1
2. CCCCCCCCCCCCCCCCCCSC(=N)N

1. 103% (inactive)
2. 77.6% (inactive)

====

System: NCI-H23 lung
Assay: NCI-60 one-dose screen, 48 h
Conditions: 10 µM unless noted
This is part of a sample that, as a whole, favours compounds with a hit. Of some 83,000 tested, about 20% had one in any assay. Active and inactive are the calls of the source. The calls were made as follows: active = growth percent below 10; inactive = the rest.
Valid outcomes are listed here; reply with one: yes (1) = active, no (0) = inactive

Below are worked cases with known answers.
compound: CC(C)N(C(=O)c1ccccc1)C(C)C
category_label: no (0)

compound: O=C(c1ccccc1)c1ccc(-c2ccc(O)cc2)cc1
category_label: no (0)

compound: COC(=O)c1cccc([N+](=O)[O-])c1
category_label: no (0)

compound: CCNC(=O)Oc1ccc[nH]c1=O
category_label: no (0)

I'd appreciate the recorded outcome for "CC(=O)c1cccs1" from this test.
no (0)

I'd appreciate the recorded outcome for "Cn1c(=O)c2[nH]c(CCCCC(=O)O)nc2n(C)c1=O" from this test.
no (0)

I'd appreciate the recorded outcome for "Cc1cc(Cc2ccccc2)c(O)c(Cc2ccccc2)c1" from this test.
no (0)

I'd appreciate the recorded outcome for "CCCCOC(=O)c1ccc(NC(=O)CCl)cc1" from this test.
no (0)

I'd appreciate the recorded outcome for "CC(=O)NCNC(C)=O" from this test.
no (0)

I'd appreciate the recorded outcome for NNc1ncnc2c1ncn2C1OC(CO)C(O)C1O (stereo not drawn) from this test.
no (0)

====

System: EKVX NSCLC
Test: NCI-60 one-dose screen, 48 h
Settings: 10 µM unless noted
Compounds without any hit were thinned out: in the full panel of roughly 83,000, 20% have a hit. Calls of active or inactive are those of the source. Rule for the calls: active = growth percent below 10; inactive = the rest.
Valid outcomes are listed here; reply with one: 1 for active, -1 for inactive

I'd appreciate the recorded outcome for "O=C(Nc1cccc(Cl)c1)c1ccc(Cl)cc1Cl" from this test.
-1

====

Answer each item with its documented growth.
System: UACC-62 melanoma
Assay: NCI-60 one-dose screen, 48 h (100 = growth as untreated, 0 = no growth, -100 = all killed)
Conditions: 10 µM unless noted
Experimental: Growth inhibition of the UACC-62 human tumor cell line is measured as a screen for anti-cancer activity. Cells are grown in 96 well plates and exposed to the test compound for 48 hours. Compounds are tested at a single concentration, which is 10^-5 M for most compounds. The reported endpoint is percent growth (GI% or GIPRCNT), where numbers from 0 - 100% represent growth inhibition, and numbers from -100% - 0 represent cell death. For example, a value of 40 represents 60% growth inhibition. […]
The panel holds about 83,000 compounds, 20% with a hit somewhere; the sample as a whole holds those more often.
Numbers only, in %.

State recorded growth for all listed molecules.
1. O=Cc1ccc(Cl)c(Cl)c1
2. CC(=O)N(C(C)=O)c1ccc(C)cc1

[102, 91.4]

State recorded growth for all listed molecules.
1. C/C(=N\N=C(/C)c1cccc([N+](=O)[O-])c1)c1cccc([N+](=O)[O-])c1
2. Cc1c(Cl)cccc1NC(=S)NC(=O)c1ccccc1

1: 93.2; 2: 92.7

====

System: CAKI-1 renal
Assay: NCI-60 one-dose screen, 48 h (100 = growth as untreated, 0 = no growth, -100 = all killed)
Settings: 10 µM unless noted
The panel holds about 83,000 compounds, 20% with a hit somewhere; the sample as a whole holds those more often.
quantity_measured: growth (%)
Give bare numbers, in %.

compound: CCCc1cccc(CCC)c1NC(=O)Nc1cc(Cl)cc(Cl)c1
unit_descriptor: %
growth: 83.5

compound: CC(CCC#N)(CCC#N)C(=O)c1ccccc1
unit_descriptor: %
growth: 112

compound: O=C(O)C1CCCN1C(=O)OCc1ccccc1 (configuration not stated)
unit_descriptor: %
growth: 94.6

compound: CC(=O)CSc1ncnc2nc[nH]c12
unit_descriptor: %
growth: 80.9

State recorded growth for all listed compounds.
1. CC(=O)c1cccc(N(C)S(=O)(=O)c2ccc(C)cc2)c1
2. COc1cc(C(=O)NC(=S)NCc2ccncc2)cc(OC)c1OC
3. CCCCCCCCCCCCCCCCOc1ccccc1NC(=O)CC(C)=O

[101, 91.4, 92.5]

====

System: RXF 393 renal
Test: NCI-60 one-dose screen, 48 h (100 = growth as untreated, 0 = no growth, -100 = all killed)
Conditions: 10 µM unless noted
Procedure: Cells are grown in 96 well plates and exposed to the test compound for 48 hours. Compounds are tested at a single concentration, which is 10^-5 M for most compounds. The reported endpoint is percent growth (GI% or GIPRCNT), where numbers from 0 - 100% represent growth inhibition, and numbers from -100% - 0 represent cell death. For example, a value of 40 represents 60% growth inhibition. A value of 0 means no net growth occurred over the course of the experiment. […]
This is part of a sample that, as a whole, favours compounds with a hit. Of some 83,000 tested, about 20% had one in any assay. Active and inactive are the calls of the source. Rule for the calls: active = growth percent below 10; inactive = the rest.
quantity_measured: growth

Example entries begin here.
compound: CCOc1ccc(NC(=S)N2CCC(CCCC3CCN(C(=S)Nc4ccc(OCC)cc4)CC3)CC2)cc1
growth: 110% (inactive)
//
compound: CSCC[C@@H]1C(=O)N(C)[C@H](C(C)(C)C)N1C(=O)c1ccccc1
growth: 111% (inactive)
//
compound: N#Cc1ccc(OC(=O)Nc2cc(Cl)cc(Cl)c2)cc1
growth: 10.3% [100 µM] (inactive)
//
compound: CN(C)c1ccc(/C=C/C(=O)c2ccc(NC(N)=O)cc2)cc1
growth: 107% (inactive)
//
compound: CC(c1ccccc1)N(C)C (stereo not drawn)
growth: 124% (inactive)

State recorded growth for all listed compounds.
1. S=C=Nc1ccc2ccccc2c1
2. O=C1C=CC(=O)C2=C1CCCC2
3. COc1cc(CC#N)c([N+](=O)[O-])cc1OC
4. CCCCCCCCCCCCCCCCCCSC(=N)N
5. CN(C)c1ccc2nc3ccc(=[N+](C)C)cc-3oc2c1
6. CC(=O)CSc1ncnc2nc[nH]c12
7. CSc1nsc(N)n1

["110% (inactive)", "103% (inactive)", "112% (inactive)", "71.5% (inactive)", "89.6% (inactive)", "89.9% (inactive)", "108% (inactive)"]

growth in this record for CC(=O)NC(O)C(Cl)Cl (stereo not drawn) : 113% (inactive)

====

Test system: 786-0 renal
Assay: NCI-60 one-dose screen, 48 h
Details: 10 µM unless noted
Protocol: Cells are grown in 96 well plates and exposed to the test compound for 48 hours. Compounds are tested at a single concentration, which is 10^-5 M for most compounds. The reported endpoint is percent growth (GI% or GIPRCNT), where numbers from 0 - 100% represent growth inhibition, and numbers from -100% - 0 represent cell death. For example, a value of 40 represents 60% growth inhibition. A value of 0 means no net growth occurred over the course of the experiment. […]
The panel holds about 83,000 compounds, 20% with a hit somewhere; the sample as a whole holds those more often. Activity calls are given as the source filed them. How the source made its calls: active means growth percent below 10; inactive means the rest.
Valid outcomes are listed here; reply with one: T = active, F = inactive

compound: O=C(CCCl)OCCOc1ccccc1
study_system: 786-0 renal
category_label: F

compound: CC(=O)c1cccs1
study_system: 786-0 renal
category_label: F

compound: Nc1ccccc1SC1CC(=O)N(c2ccc(Cl)c(Cl)c2)C1=O (stereo not drawn)
study_system: 786-0 renal
category_label: F

compound: CCC(=O)C1C(=O)c2ccccc2C1=O
study_system: 786-0 renal
category_label: F

compound: Cc1c(-c2ccc(C3CCCCC3)cc2)nc2ccc(F)cc2c1C(=O)O
study_system: 786-0 renal
category_label: F

I'd appreciate the recorded outcome for "CCOC(=O)CNC(=O)Sc1ccc(C(C)(C)C)cc1" from this test.
F

I'd appreciate the recorded outcome for "CC(=O)/C(C)=N\OC(=O)Nc1ccccc1" from this test.
F
